target: phosphorylated EGFR (pEGFR) (Homo sapiens, UniProt P00533); construct: performed to measure phosphorylated EGFR levels using A431 cells; endogenous in cells; experiment: Detection of phosphorylated EGFR (pEGFR) in EGF-stimulated A431 cells (AlphaLISA); settings: A431 cells (10% FBS), 4 hours incubation, EGF 30 ng/mL for 10 minutes
Sequence (P00533 25-1210): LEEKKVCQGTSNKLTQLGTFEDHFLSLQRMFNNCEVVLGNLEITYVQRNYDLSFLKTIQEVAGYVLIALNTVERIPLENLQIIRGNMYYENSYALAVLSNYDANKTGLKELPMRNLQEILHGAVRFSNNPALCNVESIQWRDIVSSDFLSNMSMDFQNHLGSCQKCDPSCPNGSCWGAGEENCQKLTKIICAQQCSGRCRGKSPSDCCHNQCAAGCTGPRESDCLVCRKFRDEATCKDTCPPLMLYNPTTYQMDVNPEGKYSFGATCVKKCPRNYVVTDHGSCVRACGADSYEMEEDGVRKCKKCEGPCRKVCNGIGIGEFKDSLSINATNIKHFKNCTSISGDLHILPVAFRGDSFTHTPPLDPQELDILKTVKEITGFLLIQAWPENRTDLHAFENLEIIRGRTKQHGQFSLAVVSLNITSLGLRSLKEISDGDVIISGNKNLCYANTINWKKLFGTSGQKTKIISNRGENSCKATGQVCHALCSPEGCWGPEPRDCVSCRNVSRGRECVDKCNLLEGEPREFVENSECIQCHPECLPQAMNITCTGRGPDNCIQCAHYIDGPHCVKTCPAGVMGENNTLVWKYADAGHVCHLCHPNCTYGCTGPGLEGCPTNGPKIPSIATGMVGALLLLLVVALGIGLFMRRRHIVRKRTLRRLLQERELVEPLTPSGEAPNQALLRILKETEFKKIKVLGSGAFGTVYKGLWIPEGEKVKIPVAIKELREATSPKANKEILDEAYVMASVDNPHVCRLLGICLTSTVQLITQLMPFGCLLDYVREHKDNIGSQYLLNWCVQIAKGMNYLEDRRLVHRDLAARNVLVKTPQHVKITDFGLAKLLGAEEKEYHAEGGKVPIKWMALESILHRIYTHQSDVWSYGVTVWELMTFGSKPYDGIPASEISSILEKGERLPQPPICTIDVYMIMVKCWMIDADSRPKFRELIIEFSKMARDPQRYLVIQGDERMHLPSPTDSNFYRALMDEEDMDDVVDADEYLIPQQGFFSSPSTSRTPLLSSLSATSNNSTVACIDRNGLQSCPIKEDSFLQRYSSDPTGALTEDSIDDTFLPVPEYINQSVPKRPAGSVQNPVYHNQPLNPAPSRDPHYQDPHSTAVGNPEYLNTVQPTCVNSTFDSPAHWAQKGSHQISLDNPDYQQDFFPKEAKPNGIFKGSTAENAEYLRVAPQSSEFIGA
In this section, each of the molecules is paired with its reported pIC50.
Answer as the number alone; pIC50 is minus log10 of concentration in mol/L.

Some solved cases for reference:
{"molecule": "CC#CC(=O)N1CCN(c2ccc3ncnc(Nc4ccc(O[C@H]5CCCOC5)c(C)c4)c3n2)CC1 [Compound 33]", "observed result": 5.39}
{"molecule": "C=CC(=O)N1CCN(c2ccc3ncnc(Nc4ccc(Oc5ccn6ncnc6c5)c(C)c4)c3n2)[C@H](C)C1 [Compound 11]", "observed result": 5.63}

C=CC(=O)N1CC[C@H](Oc2ccc3ncnc(Nc4ccc(Oc5ccc6c(c5)ncn6C)c(C)c4)c3n2)C1 [Compound 49] has a reported pIC50 of 6.46

C=CC(=O)N1CC[C@H](Oc2ccc3ncnc(Nc4ccc(Oc5ccc6c(c5)ncn6C)c(C)c4)c3c2)C1 [Compound 38] has a reported pIC50 of 6.34

* * *

target: Ba/F3 ERBB2 YVMA (Homo sapiens, UniProt P04626, DUP772-775, cells depend on it); assay: Cell viability assay (CellTiter Glo) in Ba/F3 cells engineered to express ERBB2 YVMA; type: cell-based, mouse; conditions: Ba/F3 cells expressing human ERBB2 YVMA mutant, 72 hours, % viability, read-out: Ba/F3 ERBB2 YVMA IC50
Sequence (P04626 with tags, fused parts or gaps DUP772-775): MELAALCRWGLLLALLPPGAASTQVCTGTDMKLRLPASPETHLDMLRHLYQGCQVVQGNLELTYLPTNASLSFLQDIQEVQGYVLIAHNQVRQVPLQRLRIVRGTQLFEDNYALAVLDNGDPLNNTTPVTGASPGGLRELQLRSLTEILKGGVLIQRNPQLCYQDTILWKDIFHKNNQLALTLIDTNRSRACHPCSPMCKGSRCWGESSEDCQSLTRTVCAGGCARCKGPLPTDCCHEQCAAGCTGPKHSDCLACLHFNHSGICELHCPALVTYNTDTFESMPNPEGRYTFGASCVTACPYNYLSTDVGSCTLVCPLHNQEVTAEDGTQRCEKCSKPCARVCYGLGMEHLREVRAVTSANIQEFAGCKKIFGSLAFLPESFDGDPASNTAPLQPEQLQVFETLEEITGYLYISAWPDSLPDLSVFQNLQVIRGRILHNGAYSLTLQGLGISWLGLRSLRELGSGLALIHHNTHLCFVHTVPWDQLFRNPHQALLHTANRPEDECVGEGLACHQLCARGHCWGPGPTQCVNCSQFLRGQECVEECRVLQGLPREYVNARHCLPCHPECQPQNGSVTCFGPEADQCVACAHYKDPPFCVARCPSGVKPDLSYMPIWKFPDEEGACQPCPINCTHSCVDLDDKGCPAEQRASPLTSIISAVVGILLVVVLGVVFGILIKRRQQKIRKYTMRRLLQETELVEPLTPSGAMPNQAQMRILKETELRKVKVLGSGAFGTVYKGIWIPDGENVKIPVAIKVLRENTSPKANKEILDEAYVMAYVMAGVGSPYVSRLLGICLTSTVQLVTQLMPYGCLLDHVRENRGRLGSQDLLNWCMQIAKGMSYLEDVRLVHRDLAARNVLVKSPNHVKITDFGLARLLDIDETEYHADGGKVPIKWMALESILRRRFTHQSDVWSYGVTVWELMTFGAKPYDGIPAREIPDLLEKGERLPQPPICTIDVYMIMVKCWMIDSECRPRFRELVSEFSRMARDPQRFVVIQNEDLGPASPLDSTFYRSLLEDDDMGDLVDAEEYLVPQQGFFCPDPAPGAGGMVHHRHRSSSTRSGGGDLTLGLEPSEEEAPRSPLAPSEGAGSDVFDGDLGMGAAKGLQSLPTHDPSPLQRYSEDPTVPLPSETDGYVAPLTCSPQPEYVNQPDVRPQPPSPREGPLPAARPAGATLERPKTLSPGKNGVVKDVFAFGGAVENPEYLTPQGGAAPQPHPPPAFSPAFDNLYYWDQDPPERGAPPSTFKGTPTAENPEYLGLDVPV
In this section, each of the compounds is paired with its reported GI50.
Respond with the bare value in nM.

Some solved cases for reference:
{"compound smiles": "C=CC(=O)N1CC[C@@H](Oc2ccc3ncnc(Nc4ccc(Oc5ccn6ncnc6c5)c(C)c4)c3c2)C1", "study system": "Ba/F3 ERBB2 YVMA (Homo sapiens, UniProt P04626, DUP772-775, cells depend on it)", "recorded metric": "GI50", "observed result": 98.7}
{"compound smiles": "Cc1cc(Nc2ncnc3ccc(N4CCN(C(=O)/C=C/CN(C)C)[C@H](C)C4)nc23)ccc1Oc1ccn2ncnc2c1", "study system": "Ba/F3 ERBB2 YVMA (Homo sapiens, UniProt P04626, DUP772-775, cells depend on it)", "recorded metric": "GI50", "observed result": 10.1}
{"compound smiles": "C=CC(=O)N1CCN(c2ccc3ncnc(Nc4ccc(Oc5ccn6ncnc6c5)c(C)c4)c3c2)[C@@H](C)C1", "study system": "Ba/F3 ERBB2 YVMA (Homo sapiens, UniProt P04626, DUP772-775, cells depend on it)", "recorded metric": "GI50", "observed result": 12}
{"compound smiles": "C=CC(=O)N1CCN(c2ccc3ncnc(Nc4ccc(Oc5ccn6ncnc6c5)c(C)c4)c3n2)CC1", "study system": "Ba/F3 ERBB2 YVMA (Homo sapiens, UniProt P04626, DUP772-775, cells depend on it)", "recorded metric": "GI50", "observed result": 8.19}

C=CC(=O)N1CCC(Nc2ccc3ncnc(Nc4ccc(Oc5ccn6ncnc6c5)c(C)c4)c3n2)CC1 has a reported GI50 of 5.81

CC#CC(=O)N1CC[C@H](Oc2ccc3ncnc(Nc4ccc(Oc5ccc6c(c5)ncn6C)c(C)c4)c3n2)C1 has a reported GI50 of 52

Cc1cc(Nc2ncnc3ccc(N4CCN(C(=O)/C=C/CN(C)C)CC4)nc23)ccc1Cc1ccc2c(c1)ncn2C has a reported GI50 of 7.1

* * *

biological target: phosphorylated ERBB2 (pERBB2) (Homo sapiens, UniProt P04626); construct: endogenous in cells; assay: Detection of phosphorylated ERBB2 (pERBB2) by ELISA in BT-474 cells; conditions: four hour incubation with compound
Sequence (P04626 23-1255): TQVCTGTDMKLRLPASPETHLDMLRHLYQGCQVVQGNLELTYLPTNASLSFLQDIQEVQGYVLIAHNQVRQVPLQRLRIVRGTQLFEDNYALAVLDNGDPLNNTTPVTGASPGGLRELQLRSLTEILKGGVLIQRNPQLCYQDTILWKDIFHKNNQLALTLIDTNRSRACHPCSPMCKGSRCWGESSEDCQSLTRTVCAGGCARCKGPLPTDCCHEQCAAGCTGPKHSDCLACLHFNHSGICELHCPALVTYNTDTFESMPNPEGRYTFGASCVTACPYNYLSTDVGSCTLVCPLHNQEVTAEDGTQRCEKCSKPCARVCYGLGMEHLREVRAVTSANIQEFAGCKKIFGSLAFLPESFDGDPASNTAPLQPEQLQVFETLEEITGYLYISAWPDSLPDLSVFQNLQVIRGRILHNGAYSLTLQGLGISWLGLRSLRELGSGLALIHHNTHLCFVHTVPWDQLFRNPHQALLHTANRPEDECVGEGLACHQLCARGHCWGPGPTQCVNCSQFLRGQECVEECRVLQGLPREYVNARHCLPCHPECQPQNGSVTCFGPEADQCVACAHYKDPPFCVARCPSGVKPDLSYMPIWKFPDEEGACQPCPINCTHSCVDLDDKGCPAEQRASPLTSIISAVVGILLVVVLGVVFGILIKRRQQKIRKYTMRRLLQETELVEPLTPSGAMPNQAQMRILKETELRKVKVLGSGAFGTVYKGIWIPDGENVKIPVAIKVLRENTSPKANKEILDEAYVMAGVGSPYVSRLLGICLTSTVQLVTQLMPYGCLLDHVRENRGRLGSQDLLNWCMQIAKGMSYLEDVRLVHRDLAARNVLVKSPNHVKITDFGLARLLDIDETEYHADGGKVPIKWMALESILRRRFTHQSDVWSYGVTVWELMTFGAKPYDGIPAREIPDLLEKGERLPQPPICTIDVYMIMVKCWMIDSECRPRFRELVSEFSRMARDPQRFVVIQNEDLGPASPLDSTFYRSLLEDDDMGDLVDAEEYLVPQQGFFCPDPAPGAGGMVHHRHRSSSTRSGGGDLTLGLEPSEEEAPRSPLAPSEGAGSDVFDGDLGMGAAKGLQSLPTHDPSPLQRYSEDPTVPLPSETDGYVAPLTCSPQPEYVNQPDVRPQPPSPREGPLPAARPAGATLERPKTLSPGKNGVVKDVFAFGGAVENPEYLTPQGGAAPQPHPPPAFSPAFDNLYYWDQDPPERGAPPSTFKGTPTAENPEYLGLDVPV
Structures can show the parent of a compound that is named as a salt.
In this section, each of the molecules is paired with its reported IC50.
Respond with the bare value in nM.

{"molecule": "Cc1cc(Nc2ncnc3ccc(N4CCN(C(=O)/C=C/CN(C)C)[C@H](C)C4)c(F)c23)ccc1Cc1ccn2ncnc2c1 [Compound 93, formate]", "IC50, nM": 30.7}
{"molecule": "C=CC(=O)N1CCN(c2cc3c(Nc4ccc(Oc5ccc6c(c5)ncn6C)c(C)c4)ncnc3cn2)[C@@H](C)C1 [Compound 107]", "IC50, nM": 21.8}

Alright, here's another molecule for you.
Cc1cc(Nc2ncnc3ccc(N4CCN(C(=O)/C=C/CN(C)C)[C@H](C)C4)nc23)ccc1Oc1ccn2ncnc2c1 [Compound 116] has a reported IC50 of 21.9

* * *

biological target: phosphorylated ERBB2 (pERBB2) (Homo sapiens, UniProt P04626); construct: endogenous in cells; assay: Detection of phosphorylated ERBB2 (pERBB2) by ELISA in BT-474 cells; conditions: four hour incubation with compound
In this section, each of the molecules is paired with its reported pIC50.
Answer as the number alone; pIC50 is minus log10 of concentration in mol/L.

{"molecule": "C=CC(=O)N1CCN(c2ccc3ncnc(Nc4ccc(Cc5ccc6c(c5)ncn6C)c(C)c4)c3c2F)C[C@H]1C [Compound 78]", "study system": "phosphorylated ERBB2 (pERBB2) (Homo sapiens, UniProt P04626)", "recorded metric": "pIC50", "observed result": 7.15}
{"molecule": "Cc1cc(Nc2ncnc3ccc(N4CCN(C(=O)/C=C/CN(C)C)CC4)nc23)ccc1Cc1ccc2c(c1)ncn2C [Compound 120]", "study system": "phosphorylated ERBB2 (pERBB2) (Homo sapiens, UniProt P04626)", "recorded metric": "pIC50", "observed result": 7.44}

C=CC(=O)N1CCN(c2ccc3ncnc(Nc4ccc(Oc5ccc(CC)nc5)c(C)c4)c3n2)CC1 [Compound 124] has a reported pIC50 of 6.86

C=CC(=O)N1CC2CCC(C1)N2c1ccc2ncnc(Nc3ccc(Oc4ccc5c(c4)ncn5C)c(C)c3)c2n1 [Compound 73] has a reported pIC50 of 7.49

* * *

biological target: Ba/F3 ERBB2 YVMA (Homo sapiens, UniProt P04626, DUP772-775, cells depend on it); assay: Cell viability assay (CellTiter Glo) in Ba/F3 cells engineered to express ERBB2 YVMA; format: cell-based, mouse; details: Ba/F3 cells expressing human ERBB2 YVMA mutant, 72 hours, % viability, read-out: Ba/F3 ERBB2 YVMA IC50
In this section, each of the molecules is paired with its reported GI50.
Respond with the bare value in nM.

C=CC(=O)N1CCCC2(C1)CN(c1ccc3ncnc(Nc4ccc(Oc5ccn6ncnc6c5)c(C)c4)c3n1)C2 [Compound 46] has a reported GI50 of 24.6

C=CC(=O)N1CCN(c2cc3c(Nc4ccc(Oc5ccn6ncnc6c5)c(C)c4)ncnc3cn2)[C@@H](C)C1 [Compound 69] has a reported GI50 of 155

C=CC(=O)N1CCN(c2ncc3ncnc(Nc4ccc(Oc5ccc6c(c5)ncn6C)c(C)c4)c3n2)C[C@H]1C [Compound 57] has a reported GI50 of 21

C=CC(=O)N1CC[C@H](Oc2ccc3ncnc(Nc4ccc(Oc5ccn6ncnc6c5)c(C)c4)c3c2)C1 [Compound 1] has a reported GI50 of 8.98

* * *

molecular target: phosphorylated EGFR (pEGFR) (Homo sapiens); construct: performed to measure phosphorylated EGFR levels using A431 cells; endogenous in cells; experiment: Detection of phosphorylated EGFR (pEGFR) in EGF-stimulated A431 cells (AlphaLISA); conditions: A431 cells (10% FBS), 4 hours incubation, EGF 30 ng/mL for 10 minutes
yes (1) if IC50 is below 1000 nM. no (0) if not; exact matches included in no (0).

Say whether its IC50 is strictly beneath 1000 nM. Entry: C=CC(=O)N1CCN(c2cc3c(Nc4ccc(Oc5ccc6c(c5)ncn6C)c(C)c4)ncnc3cn2)CC1
no (0)

Say whether its IC50 is strictly beneath 1000 nM. Entry: CC#CC(=O)N1CCN(c2ccc3ncnc(Nc4ccc(Oc5ccc6c(c5)ncn6C)c(C)c4)c3n2)CC1
no (0)

Say whether its IC50 is strictly beneath 1000 nM. Entry: C=CC(=O)N1CCN(c2ccc3ncnc(Nc4ccc(Oc5ccc6scnc6c5)c(C)c4)c3n2)CC1
yes (1)

Say whether its IC50 is strictly beneath 1000 nM. Entry: CC#CC(=O)N1CC2CC1CN2c1ccc2ncnc(Nc3ccc(Oc4ccn5ncnc5c4)c(C)c3)c2n1 (stereo not drawn)
no (0)

Say whether its IC50 is strictly beneath 1000 nM. Entry: C=CC(=O)N1CCN(c2cc3c(Nc4ccc(Cc5ccn6ncnc6c5)c(C)c4)ncnc3cn2)CC1
no (0)

Say whether its IC50 is strictly beneath 1000 nM. Entry: C=CC(=O)N1CC2CCC(C1)N2c1ccc2ncnc(Nc3ccc(Oc4ccc5c(c4)ncn5C)c(C)c3)c2n1
yes (1)

Say whether its IC50 is strictly beneath 1000 nM. Entry: C=CC(=O)N1CCCC2(C1)CN(c1ccc3ncnc(Nc4ccc(Oc5ccn6ncnc6c5)c(C)c4)c3n1)C2
no (0)

Say whether its IC50 is strictly beneath 1000 nM. Entry: C=CC(=O)N1CC2CC1CN2c1ccc2ncnc(Nc3ccc(Cc4ccn5ncnc5c4)c(C)c3)c2n1 (stereo not drawn)
yes (1)

Say whether its IC50 is strictly beneath 1000 nM. Entry: Cc1cc(Nc2ncnc3ccc(N4CCN(C(=O)/C=C/CN(C)C)C[C@@H]4C)nc23)ccc1Cc1ccn2ncnc2c1
no (0)

Say whether its IC50 is strictly beneath 1000 nM. Entry: C=CC(=O)N1CC2CC1CN2c1ccc2ncnc(Nc3ccc(Oc4ccn5ncnc5c4)c(C)c3)c2n1 (stereo not drawn)
yes (1)

Say whether its IC50 is strictly beneath 1000 nM. Entry: C=CC(=O)N1CCN(c2cc3c(Nc4ccc(Cc5ccc6c(c5)ncn6C)c(C)c4)ncnc3cn2)C[C@H]1C
no (0)

Say whether its IC50 is strictly beneath 1000 nM. Entry: C=CC(=O)N1CCN(c2ccc3ncnc(Nc4ccc(Cc5ccn6ncnc6c5)c(C)c4)c3n2)CC1(C)C
no (0)

Say whether its IC50 is strictly beneath 1000 nM. Entry: C=CC(=O)N1CCN(c2ccc3ncnc(Nc4ccc(Oc5ccn6ncnc6c5)c(C)c4)c3c2)CC1
yes (1)

Say whether its IC50 is strictly beneath 1000 nM. Entry: CC#CC(=O)N1CC2CCC(C1)N2c1ccc2ncnc(Nc3ccc(Oc4ccc5c(c4)ncn5C)c(C)c3)c2n1
no (0)

Say whether its IC50 is strictly beneath 1000 nM. Entry: C=CC(=O)N1CCN(c2ncc3ncnc(Nc4ccc(Cc5ccn6ncnc6c5)c(C)c4)c3n2)CC1
no (0)
